- PROCEDURE_DETAILS: Validation qHTS assay for inhibitors of Activation Induced Cytidine Deaminase (AID): UDG Counterscreen signal (AID 1347427)
- CONDITIONS: biochemical UDG counterscreen, fluorescence signal; series mostly up to 115 µM
- Source text: Assay Provider (PI) Patricia Gearhart Ph.D. National Institute on Aging National Institute of Health (NIH), Bethesda, MD Assay Provider (PI) Rahul Kohli Ph.D. Perelman School of Medicine University of Pennsylvania, Philadelphia, PA […] A FRET based analysis of cytosine deamination, was developed to identify potential inhibitors of AID catalytic activity. This screen has two signal output, Read 1 evaluates the AID inhibition response. […]
Active and inactive are the calls of the source. The call rests on the fitted dose curve; in most records, active means well fitted curve in the direction sought with a large enough effect; inconclusive means small, poorly fitted or top-dose-only effect, or another doubt; inactive means no such curve, though single readings can be large or run the other way.
MEASUREMENT_NAME: outcome

Below, 5 molecules whose answers are already recorded.
# STRUCTURE_SMILES, TEST_VALUE
measured = [
    ("CCN(CC)CCNC(=O)c1ccc(NS(C)(=O)=O)cc1", "inactive"),
    ("Cn1cnc2c(NCc3ccccc3)nc(NCCO)nc21", "inactive"),
    ("Clc1ccc2c(c1)N=C(N1CCNCC1)c1ccccc1N2", "inactive"),
    ("COC(=O)C1=CO[C@@H](O)[C@@H]2C(CO)=CC[C@H]12", "inactive"),
    ("CN(C)c1cc2c(Nc3ccc4c(cnn4Cc4ccccc4)c3)ncnc2cn1", "inactive"),
]

// for each molecule below, give its outcome
1. Cc1nn(-c2ccccc2)c(C)c1/C=N/N1CCN(Cc2ccccc2)CC1
2. O=C1NC(c2cccc([N+](=O)[O-])c2)=CCN1c1ccccc1O
3. O=C1NC(=O)/C(=C/c2ccc3c(c2)OC(F)(F)O3)S1

Output line:
["inactive", "inactive", "inactive"]

----------
- SYSTEM_UNDER_TEST: Rap guanine nucleotide exchange factor 3 (Homo sapiens) (UniProt O95398)
- Sequence (O95398 whole entry, looked up): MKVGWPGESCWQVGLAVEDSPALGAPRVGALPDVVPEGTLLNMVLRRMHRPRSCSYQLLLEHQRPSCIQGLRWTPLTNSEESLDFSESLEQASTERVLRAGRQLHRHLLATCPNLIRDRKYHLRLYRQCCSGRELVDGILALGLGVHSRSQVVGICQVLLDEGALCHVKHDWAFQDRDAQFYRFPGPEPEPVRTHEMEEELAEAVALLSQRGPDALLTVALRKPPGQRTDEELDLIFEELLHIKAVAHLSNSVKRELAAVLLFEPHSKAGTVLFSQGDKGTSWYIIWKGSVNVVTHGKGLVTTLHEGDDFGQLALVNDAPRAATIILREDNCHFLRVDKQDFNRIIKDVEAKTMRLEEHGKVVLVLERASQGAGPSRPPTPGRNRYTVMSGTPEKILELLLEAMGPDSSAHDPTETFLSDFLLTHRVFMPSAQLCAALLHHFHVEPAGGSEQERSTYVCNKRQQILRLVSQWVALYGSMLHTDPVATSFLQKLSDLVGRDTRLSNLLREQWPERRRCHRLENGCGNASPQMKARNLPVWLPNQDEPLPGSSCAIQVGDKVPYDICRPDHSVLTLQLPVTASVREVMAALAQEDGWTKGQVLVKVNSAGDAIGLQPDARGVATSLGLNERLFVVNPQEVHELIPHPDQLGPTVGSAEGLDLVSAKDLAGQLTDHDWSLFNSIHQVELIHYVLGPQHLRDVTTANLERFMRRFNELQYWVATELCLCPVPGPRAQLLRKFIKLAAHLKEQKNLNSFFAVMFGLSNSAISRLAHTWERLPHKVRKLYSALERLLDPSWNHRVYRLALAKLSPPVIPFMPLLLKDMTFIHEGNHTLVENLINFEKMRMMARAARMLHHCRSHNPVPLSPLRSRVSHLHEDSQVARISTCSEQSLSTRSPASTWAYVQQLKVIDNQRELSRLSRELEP
- PROCEDURE_DETAILS: Confirmatory qHTS for antagonist of cAMP-regulated guanine nucleotide exchange factor 3 (EPAC1) (AID 1645880); further: nearly all actives have a fitted effect of over 55% in size; further: potency means the concentration at half of the fitted maximal effect
- CONDITIONS: EPAC1 Rap1B-BODIPY-GDP exchange, fluorescence; series mostly up to 203 µM
Results filed as inconclusive are left out. Calls of active or inactive are those of the source. Calls come from the whole dose curve; as a rule, active = well fitted inhibition curve with a large enough effect; inconclusive = small, poorly fitted or top-dose-only effect; inactive = no such curve, though single readings can be large or run the other way.

# STRUCTURE_SMILES, SYSTEM_UNDER_TEST, Potency
rows = [
    ("Nc1cccc2c(N)cccc12", "Rap guanine nucleotide exchange factor 3 (Homo sapiens) (UniProt O95398)", "inactive"),
    ("CC(C)(c1ccc(O)cc1)c1ccc(O)cc1", "Rap guanine nucleotide exchange factor 3 (Homo sapiens) (UniProt O95398)", "inactive"),
    ("CCC(=O)O[C@H]1[C@H](O[C@@H]2[C@@H](C)[C@H](O[C@H]3C[C@@](C)(OC)[C@@H](O)[C@H](C)O3)[C@@H](C)C(=O)O[C@H](CC)[C@@](C)(O)[C@H](O)[C@@H](C)C(=O)[C@H](C)C[C@@]2(C)O)O[C@H](C)C[C@@H]1N(C)C", "Rap guanine nucleotide exchange factor 3 (Homo sapiens) (UniProt O95398)", "12.5 µM (active)"),
    ("Nc1ccc2cc3ccc(N)cc3nc2c1", "Rap guanine nucleotide exchange factor 3 (Homo sapiens) (UniProt O95398)", "inactive"),
]

----------
- PROCEDURE_DETAILS: qHTS of pediatric cancer cell lines to identify multiple opportunities for drug repurposing: Primary screen for Rh18 cells (AID 1347102); further: nearly all actives have a fitted effect of over 65% in size
- CONDITIONS: Rh18 rhabdomyosarcoma viability, CellTiter-Glo luminescence, 48 h; series mostly up to 46 µM
Results filed as inconclusive are left out. Active and inactive are the calls of the source. The call rests on the fitted dose curve; in most records, active means well fitted cell-killing curve with a large enough effect; inconclusive means small, poorly fitted or top-dose-only effect; inactive means flat fitted curve, though single readings scatter.
MEASUREMENT_NAME: outcome

Below, 4 compounds whose answers are already recorded.
# STRUCTURE_SMILES, outcome
data = [
    ("CCOC(=O)N1CCC(n2c(=O)[nH]c3cc(Cl)ccc32)CC1", "inactive"),
    ("COc1ccc(CCC(C)=O)cc1", "inactive"),
    ("CCCCCCCCCCCCCCCCCCN(C)C", "inactive"),
    ("CCCC(=O)O[C@]1(C(=O)CC)CC[C@H]2[C@@H]3CCC4=CC(=O)CC[C@]4(C)[C@H]3[C@@H](O)C[C@@]21C", "inactive"),
]

Let us move to another entry and its outcome.
Input line: I would be grateful if you could share the reported outcome for CC(=O)OC[C@H]1O[C@@H](OC(C)=O)[C@H](OC(C)=O)[C@@H]1OC(C)=O .
Output line: inactive
